The entries below are paired with their reported ΔG (Gibbs energy of protein stability in presence of ligand).
Molecular target: A2a-8M receptor (Homo sapiens, UniProt P29274, A54L/K122A/L202A/L235A/N154A/R107A/S277A/T88A/V239A)
Sequence (P29274 1-316 A54L/T88A/R107A/K122A/N154A/L202A/L235A/V239A/S277A): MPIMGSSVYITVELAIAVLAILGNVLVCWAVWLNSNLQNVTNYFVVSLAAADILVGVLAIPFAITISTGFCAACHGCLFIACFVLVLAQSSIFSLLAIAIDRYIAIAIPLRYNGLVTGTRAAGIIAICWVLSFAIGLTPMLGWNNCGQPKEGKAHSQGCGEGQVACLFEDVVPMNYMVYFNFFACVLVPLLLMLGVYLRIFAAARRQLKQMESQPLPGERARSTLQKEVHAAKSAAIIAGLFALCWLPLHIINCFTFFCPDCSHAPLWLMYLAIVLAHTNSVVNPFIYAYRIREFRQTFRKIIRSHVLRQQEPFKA
Test: Isothermal chemical denaturation
Details: [L] = 21 μM; 25°C; protein […]; 338 nm; apo 3.96
Where a name gives a salt, the structure may show the parent alone.
readout-kind: ΔG (Gibbs energy of protein stability in presence of ligand) (kcal/mol)

molecule | recorded-number
CCCCC#Cc1nc(NC)c2ncn([C@@H]3O[C@H](CO)[C@@H](O)[C@H]3O)c2n1 [Hemado] | 4.59
N=C(N)NC(=O)Cc1c(Cl)cccc1Cl [Guanfacine HCl] | 3.08
Nc1nc(SCCc2ccc(S(=O)(=O)O)cc2)nc2c1ncn2[C@@H]1O[C@H](CO)[C@@H](O)[C@H]1O [PSB0777] | 3.47
CN1CCc2cccc(Cl)c2CC1.Cl [SKF86466 HCl] | 3.38
CCOc1nc2c(N)ncnc2n1CC [ANR94] | 5.82
Cl.Cl.OCCOCCN1CCN(Cc2cccc(Oc3ccccc3)c2)CC1 [ZK756326] | 5.11

---

Molecular target: A2a-8M receptor (Homo sapiens, UniProt P29274, A54L/K122A/L202A/L235A/N154A/R107A/S277A/T88A/V239A)
Test: Isothermal chemical denaturation
Details: [L] = 2 μM; 25°C; 338 nm (SCH58261 at 316 nm); apo 1.37
Known m of a selection of compounds

compound | readout-unit | m
CCCn1c(=O)[nH]c2nc(-c3ccc(S(=O)(=O)O)cc3)[nH]c2c1=O [PSB1115] | kcal/mol×M | 1.63
N#Cc1c(N)nc(SCc2ncc[nH]2)c(C#N)c1-c1ccc(O)cc1 [LUF5834] | kcal/mol×M | 1.90
c1ccc(NCc2ccc(CNc3ccccn3)cc2)nc1 [WZ811] | kcal/mol×M | 1.19
CCO/C(O)=C1\C(C)=NC(c2ccccc2)=C(C(=O)OCc2ccc([N+](=O)[O-])cc2)C1C#Cc1ccccc1 (stereo not shown) [MRS1334] | kcal/mol×M | 1.30

---

Collected m values appear next to each entry.
Biological target: A2a-8M receptor (Homo sapiens, UniProt P29274, A54L/K122A/L202A/L235A/N154A/R107A/S277A/T88A/V239A)
Assay: Isothermal chemical denaturation
Conditions: [L] = 21 μM; 25°C; 338 nm; apo 1.37
Counter-ions that a name gives are not always drawn.
readout-kind: m

molecule | readout-kind | result
CCCCC#Cc1nc(NC)c2ncn([C@@H]3O[C@H](CO)[C@@H](O)[C@H]3O)c2n1 | m | 1.77 kcal/mol×M
CCOc1nc2c(N)ncnc2n1CC | m | 1.65 kcal/mol×M
Cl.Cl.OCCOCCN1CCN(Cc2cccc(Oc3ccccc3)c2)CC1 | m | 1.50 kcal/mol×M
Nc1nc(SCCc2ccc(S(=O)(=O)O)cc2)nc2c1ncn2[C@@H]1O[C@H](CO)[C@@H](O)[C@H]1O | m | 1.56 kcal/mol×M
CN1CCc2cccc(Cl)c2CC1.Cl [SKF86466 HCl] | m | 1.55 kcal/mol×M
N=C(N)NC(=O)Cc1c(Cl)cccc1Cl [Guanfacine HCl] | m | 1.37 kcal/mol×M

Cited source: paper PMC4355058
